Target chain: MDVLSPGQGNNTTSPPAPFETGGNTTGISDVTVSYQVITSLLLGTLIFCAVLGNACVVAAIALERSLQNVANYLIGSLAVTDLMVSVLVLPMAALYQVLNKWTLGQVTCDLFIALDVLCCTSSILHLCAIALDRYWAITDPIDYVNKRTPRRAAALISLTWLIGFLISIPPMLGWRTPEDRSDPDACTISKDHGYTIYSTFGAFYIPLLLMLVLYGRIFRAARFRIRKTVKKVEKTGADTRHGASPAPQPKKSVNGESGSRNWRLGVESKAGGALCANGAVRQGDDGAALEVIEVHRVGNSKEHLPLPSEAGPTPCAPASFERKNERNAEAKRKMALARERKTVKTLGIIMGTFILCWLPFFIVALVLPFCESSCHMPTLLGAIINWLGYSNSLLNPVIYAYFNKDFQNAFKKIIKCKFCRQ
Counter-ions that a name gives are not always drawn.
REPORTED_PROPERTY: Ki (nM)

Some molecules with known Ki results, for comparison:
Cc1ccc2c3c(ccc2n1)OC[C@H](CN1CCC(CCc2ccc4c(c2)NC(=O)CO4)CC1)O3 [Example 14, dihydrochloride salt]	0.59
Cc1ccc2c3c(ccc2n1)OC[C@H](CN1CC[C@H](Oc2ccc4c(c2)NC(=O)CO4)C1)O3 [Example 8, dihydrochloride salt]	1.49
Cc1ccc2c3c(ccc2n1)OC[C@H](CN1CCC(Cc2ccc4c(c2)N(C)C(=O)CO4)CC1)O3 [Example 12, dihydrochloride salt]	0.29
Cc1ccc2c3c(ccc2n1)OC[C@H](CN1CCC(Oc2ccc4c(c2)NC(=O)CO4)CC1)O3 [Example 1, dihydrochloride salt]	0.26
Cc1ccc2c3c(ccc2n1)OC[C@H](CN1CCC(Oc2ccc4c(c2)NC(=O)CC4)CC1)O3 [Example 17, dihydrochloride salt]	0.28

A: Cc1ccc2c3c(ccc2n1)OC[C@H](CN1CCC(CCc2ccc4c(c2)N(C)C(=O)CO4)CC1)O3 [Example 13, dihydrochloride salt]
B: Cc1ccc2c3c(ccc2n1)OC[C@H](CN1CCCC(Cc2ccc4c(c2)NC(=O)CO4)C1)O3 (some centres unmarked) [Example 16, dihydrochloride salt]
Query: Lower value of Ki belongs to which: A or B ? To answer, give the label that identifies your chosen option.
Reply: B

====

Structures can show the parent of a compound that is named as a salt.
REPORTED_PROPERTY: melting point

Some compounds with known melting point results, for comparison:
Cc1ccc2c3c(ccc2n1)OC[C@H](CNCCCOc1ccc2c(c1)NC(=O)CO2)O3 (as salt: hydrochloride) [Example 7, dihydrochloride salt]	184 °C (dec.)
CNCCCCOc1ccc2c(c1)NC(=O)CO2 (as salt: hydrochloride)	210 to 212 °C
Cc1ccc2c3c(ccc2n1)OC[C@H](CN1CCC(CCc2ccc4c(c2)N(C)C(=O)CO4)CC1)O3 (as salt: hydrochloride) [Example 13, dihydrochloride salt]	185 to 189 °C

Query: Record request: melting point value, item CNCCCOc1ccc2c(c1)NC(=O)CO2 (as salt: hydrochloride)
Reply: 193 to 194 °C

Query: Record request: melting point value, item Cc1ccc2c3c(ccc2n1)OC[C@H](CN1CCCC(Cc2ccc4c(c2)NC(=O)CO4)C1)O3 (some centres unmarked) (as salt: hydrochloride) [Example 16, dihydrochloride salt]
Reply: 200 to 205 °C

Query: Record request: melting point value, item Cc1ccc2c3c(ccc2n1)OC[C@H](CN1CCC(Cc2ccc4c(c2)N(C)C(=O)CO4)CC1)O3 (as salt: hydrochloride) [Example 12, dihydrochloride salt]
Reply: 205 to 208 °C

Query: Record request: melting point value, item Cc1ccc2c3c(ccc2n1)OC[C@H](CN1CCC(CCc2ccc4c(c2)NC(=O)CO4)CC1)O3 (as salt: hydrochloride) [Example 14, dihydrochloride salt]
Reply: 202 to 205 °C

Query: Record request: melting point value, item Cc1ccc2c3c(ccc2n1)OC[C@H](CN1CCC(Cc2ccc4c(c2)NC(=O)CO4)CC1)O3 (as salt: hydrochloride) [Example 2, dihydrochloride]
Reply: 215 °C (dec.)
